Assay: pKa value for the compound was determined
Format: physicochemical
attribute.measured: pKa

>>> result("O=C1NC(=O)[C@@]2(CCOc3ccc(F)cc32)N1")
7.85

---

Biological target: Aldo-keto reductase family 1 member B1 (Rattus norvegicus)
Assay: Inhibition of rat lens aldose reductase at 50 uM
attribute.measured: inhibition (%)

>>> result_number("COc1cccc(C2C(=O)NOC2=O)c1 (stereo unspecified)")
75
>>> result_number("O=C1NOC(=O)C1c1ccccc1C(F)(F)F (stereo unspecified)")
80
>>> result_number("O=C1NOC(=O)C1CC[S+]([O-])c1ccccc1 (stereo unspecified)")
19
>>> result_number("O=C1NOC(=O)C1CCS(=O)(=O)c1ccccc1 (stereo unspecified)")
32
>>> result_number("O=C1NOC(=O)C12Cc1cccc3cccc(c13)C2")
5.1
>>> result_number("O=C1NOC(=O)C1c1cccnc1 (stereo unspecified)")
37
>>> result_number("CC(=O)Nc1ccc(C2(C)C(=O)NOC2=O)cc1 (stereo unspecified)")
16
>>> result_number("O=C(O)CN1C(=O)c2cccc3cccc(c23)C1=O")
87
>>> result_number("O=C1NOC(=O)C1CCOc1ccccc1 (stereo unspecified)")
35
>>> result_number("COc1ccccc1C1C(=O)NOC1=O (stereo unspecified)")
0
>>> result_number("O=C1NOC(=O)C1c1ccccn1 (stereo unspecified)")
6.5
